target: 5-hydroxytryptamine receptor 1A (Rattus norvegicus); test: In vitro binding affinity at 5-HT1A receptors assayed by displacement of [3H]8-OH-DPAT from 5-hydroxytryptamine 1A receptor in rat hippocampal membranes; assay type: cell membranes, Hippocampus, Membrane
Sequence (P19327 whole entry): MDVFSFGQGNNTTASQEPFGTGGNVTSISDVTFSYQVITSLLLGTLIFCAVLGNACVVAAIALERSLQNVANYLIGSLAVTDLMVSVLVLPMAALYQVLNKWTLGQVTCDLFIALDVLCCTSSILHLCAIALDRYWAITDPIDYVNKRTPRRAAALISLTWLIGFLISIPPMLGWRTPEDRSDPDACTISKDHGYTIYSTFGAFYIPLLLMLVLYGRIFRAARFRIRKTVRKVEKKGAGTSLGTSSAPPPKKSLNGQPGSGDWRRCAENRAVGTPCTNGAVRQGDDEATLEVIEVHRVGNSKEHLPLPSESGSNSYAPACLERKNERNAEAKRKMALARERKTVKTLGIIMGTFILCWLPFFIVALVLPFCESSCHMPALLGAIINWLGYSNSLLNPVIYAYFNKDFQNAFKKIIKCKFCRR
// reported log10 Ki for each item listed
Note: values are log10 of Ki expressed in nM.

# example entries with known answers
>  <itemSmiles>
CCCN(C(C)C)[C@H]1COc2cccc(C(=O)OC)c2C1

>  <log10 Ki>
-0.49

$$$$
>  <itemSmiles>
CNC(=O)c1cccc2c1C[C@@H](NCCCCN1C(=O)CC3(CCCC3)CC1=O)CO2

>  <log10 Ki>
2.72

$$$$
>  <itemSmiles>
CCCN(CC(C)(C)C)[C@H]1COc2cccc(C(=O)NC)c2C1

>  <log10 Ki>
1.49

$$$$
>  <itemSmiles>
CCCN(C1CCCC1)[C@H]1COc2cccc(C(=O)OC)c2C1

>  <log10 Ki>
-0.39

$$$$
>  <itemSmiles>
CNC(=O)c1cccc2c1C[C@H](N(CCCCN1C(=O)CC3(CCCC3)CC1=O)CC(C)C)CO2

>  <log10 Ki>
0.39

$$$$

Request: // lookup log10 Ki | system=5-hydroxytryptamine receptor 1A (Rattus norvegicus) | key= CCCN[C@H]1COc2cccc(C(N)=O)c2C1
Response: 1.99

Request: // lookup log10 Ki | system=5-hydroxytryptamine receptor 1A (Rattus norvegicus) | key= CCCN(CC(C)C)[C@H]1COc2cccc(C(=O)NC)c2C1
Response: 0.37

* * *

target: 5-hydroxytryptamine receptor 1A (Homo sapiens) (UniProt P08908); assay: Percent inhibition of vasoactive intestinal polypeptide-induced (VIP-induced) cAMP formation in GH4ZD10 cells expressing 5-HT1A receptor at 50 uM relative to 5-HT; assay type: functional, cell-based
Sequence (P08908 whole entry): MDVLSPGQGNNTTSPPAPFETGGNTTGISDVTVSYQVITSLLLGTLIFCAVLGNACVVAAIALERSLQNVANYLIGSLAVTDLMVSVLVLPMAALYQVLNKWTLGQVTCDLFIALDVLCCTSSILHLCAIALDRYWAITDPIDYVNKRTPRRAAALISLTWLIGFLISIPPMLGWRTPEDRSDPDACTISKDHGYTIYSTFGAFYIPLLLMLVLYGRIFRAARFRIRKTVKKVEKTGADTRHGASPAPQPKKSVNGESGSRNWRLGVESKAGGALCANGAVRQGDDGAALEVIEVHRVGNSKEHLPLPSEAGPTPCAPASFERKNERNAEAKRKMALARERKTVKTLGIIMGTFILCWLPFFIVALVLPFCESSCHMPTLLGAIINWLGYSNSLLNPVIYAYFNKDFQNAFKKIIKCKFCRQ
recordedMetric: Efficacy (%)
Write the value in % as a bare number.

>  <itemSmiles>
CCCN(C(C)C)[C@H]1COc2cccc(C(N)=O)c2C1

>  <Efficacy (%)>
75

$$$$
>  <itemSmiles>
CCCN(C(C)C)[C@H]1COc2cccc(C(=O)NC(C)C)c2C1

>  <Efficacy (%)>
74

$$$$
>  <itemSmiles>
CNC(=O)c1cccc2c1C[C@H](NCCCCN1C(=O)CC3(CCCC3)CC1=O)CO2

>  <Efficacy (%)>
82

$$$$

Shifting focus to the molecule that follows.
Request: // lookup Efficacy | system=5-hydroxytryptamine receptor 1A (Homo sapiens) (UniProt P08908) | key= CNC(=O)c1cccc2c1C[C@H](N(CCCCN1C(=O)CC3(CCCC3)CC1=O)CC(C)C)CO2
Response: 123

* * *

// reported Ki for each item listed
molecular target: 5-hydroxytryptamine receptor 1A (Rattus norvegicus); assay: In vitro binding affinity at 5-HT1A receptors assayed by displacement of [3H]8-OH-DPAT from 5-hydroxytryptamine 1A receptor in rat hippocampal membranes; assay type: cell membranes, Hippocampus, Membrane
Write the value in nM as a bare number.

>  <itemSmiles>
CC(C)NC(=O)c1cccc2c1C[C@@H](NC(C)C)CO2

>  <unitOfMeasure>
nM

>  <reportedResult>
4300

$$$$

Request: Param item = CCCN(CCC)[C@H]1COc2cccc(C(=O)NC(C)C)c2C1 ; retrieve measured Ki.
Response: 14

Request: Param item = CCCN(C(C)C)[C@@H]1COc2cccc(C(C)=O)c2C1 ; retrieve measured Ki.
Response: 11.9
